- protocol.summary: Inhibition of rat farnesyl transferase after 30 mins
pIC50: −log10 of the molar value.
Given measured pIC50, output MET if it is greater than or equal to 5 and NOT MET if not.

>>> assigned_category("C=C1[C@@H](O)C[C@H]2C(C)(C)C[C@H](O)C[C@]2(C)[C@H]1C[C@@H]1C(C)=CC[C@H]2C(=O)C(OC)=CC(=O)[C@@]12c1cc(=O)c2c(O)cc(O)cc2o1 [DICHROSTACHINE B]")
"NOT MET"
>>> assigned_category("C=C1[C@@H](O)C[C@H]2C(C)(C)CCC[C@]2(C)[C@H]1C[C@@H]1C(C)=CC[C@H]2C(O)C(=O)C=C[C@@]12c1cc(=O)c2c(O)cc(O)cc2o1 (stereo not given in full) [DICHROSTACHINE P]")
"MET"
>>> assigned_category("NC(=O)N1CCC(CC(=O)N2CCC([C@H]3c4ncc(Br)cc4CCc4cc(Cl)cc(Br)c43)CC2)CC1 [LONAFARNIB]")
"MET"
>>> assigned_category("COC1=CC(=O)[C@@]2(c3cc(=O)c4c(O)cc(O)cc4o3)[C@H](C[C@]3(O)[C@@]4(C)C[C@@H](O)CC(C)(C)[C@@H]4CC[C@@]3(C)O)C(C)=CC[C@H]2C1=O")
"NOT MET"

Shifting focus to the compound that follows.
Does the compound C=C1[C@@H](O)C[C@H]2C(C)(C)C[C@H](O)C[C@]2(C)[C@@]1(O)C[C@@H]1C(C)=CC[C@H]2C(=O)C(OC)=CC(=O)[C@@]12c1cc(=O)c2c(O)cc(O)cc2o1 [DICHROSTACHINE D] have recorded pIC50 that is 5 or more?
NOT MET

* * *

- protocol.summary: Inhibition of rat farnesyl transferase after 30 mins
metric: pIC50
Note on pIC50: it is the negative log10 of concentration, concentration in mol/L.

Record excerpt, results attached:
>>> assay_value("C=C1C(=O)C[C@H]2C(C)(C)CCC[C@]2(C)[C@H]1C[C@@H]1C(C)=CC[C@H]2C(=O)C(OC)=CC(=O)[C@@]12c1cc(=O)c2c(O)cc(O)cc2o1 [DICHROSTACHINE L]")
5.49
>>> assay_value("C=C1[C@@H](O)C[C@H]2C(C)(C)CCC[C@]2(C)[C@H]1C[C@@H]1C(C)=CC[C@H]2C(=O)C(OC)=CC(=O)[C@@]12c1cc(=O)c2c(O)cc(O)cc2o1 [DICHROSTACHINE C]")
5.24
>>> assay_value("C=C1[C@@H](O)C[C@@H]2[C@](C)(CCC[C@@]2(C)C(=O)O)[C@H]1C[C@@H]1C(C)=CC[C@H]2C(=O)C(OC)=CC(=O)[C@@]12c1cc(=O)c2c(O)cc(O)cc2o1 [DICHROSTACHINE E]")
4.40
>>> assay_value("C=C1[C@@H](O)C[C@@H]2[C@](C)(CCC[C@@]2(C)C=O)[C@H]1C[C@@H]1C(C)=CC[C@H]2C(=O)C(OC)=CC(=O)[C@@]12c1cc(=O)c2c(O)cc(O)cc2o1 [DICHROSTACHINE H]")
5.74

pIC50 lookup needed for C=C1C(=O)C[C@H]2C(C)(C)CCC[C@]2(C)[C@H]1C[C@@H]1C(C)=CC[C@H]2C(=O)C(OC)=CC(=O)[C@@]12c1cc(=O)c2c(O)cc(OC)cc2o1 [DICHROSTACHINE M] , thanks.
5.52

Query: pIC50; subject: C=C1[C@@H](O)C[C@H]2C(C)(C)CCC[C@]2(C)[C@H]1C[C@@H]1C(C)=CC[C@H]2C(O)C(OC)=CC(=O)[C@@]12c1cc(=O)c2c(O)cc(O)cc2o1 (some centres not stated) [DICHROSTACHINE O]
4.60

Name the recorded pIC50 for C=C1[C@@H](O)C[C@H]2[C@](C)(CO)CCC[C@]2(C)[C@H]1C[C@@H]1C(C)=CC[C@H]2C(=O)C(OC)=CC(=O)[C@@]12c1cc(=O)c2c(O)cc(O)cc2o1 [DICHROSTACHINE A] .
5.00

* * *

Activity overview
- protocol.summary: Cytotoxicity against human WM266.4 cells after 72 hrs by ATP lite assay
- Format: functional, WM 266-4

Example entries and their recorded answers appear below.
>>> assay_value("C=C1C(=O)C[C@H]2C(C)(C)CCC[C@]2(C)[C@H]1C[C@@H]1C(C)=CC[C@H]2C(=O)C(OC)=CC(=O)[C@@]12c1cc(=O)c2c(O)cc(O)cc2o1")
">10 µM"
>>> assay_value("C=C1[C@@H](O)C[C@H]2[C@](C)(CO)CCC[C@]2(C)[C@H]1C[C@@H]1C(C)=CC[C@H]2C(=O)C(OC)=CC(=O)[C@@]12c1cc(=O)c2c(O)cc(O)cc2o1")
">10 µM"

Please report the recorded Activity for C=C1[C@@H](O)C[C@H]2C(C)(C)C[C@H](O)C[C@]2(C)[C@H]1C[C@@H]1C(C)=CC[C@H]2C(=O)C(OC)=CC(=O)[C@@]12c1cc(=O)c2c(O)cc(O)cc2o1 .
>10 µM

* * *

- protocol.summary: Cytotoxicity against human WM266.4 cells after 72 hrs by ATP lite assay
- Type: functional, WM 266-4
metric: Activity

These recorded examples may help you get a feel for the data.
>>> assay_value("COC1=CC(=O)[C@@]2(c3cc(=O)c4c(O)cc(O)cc4o3)[C@H](C[C@]3(O)[C@@]4(C)C[C@@H](O)CC(C)(C)[C@@H]4CC[C@@]3(C)O)C(C)=CC[C@H]2C1=O")
">10 µM"
>>> assay_value("C=C1[C@@H](O)C[C@@H]2[C@](C)(CCC[C@@]2(C)C=O)[C@H]1C[C@@H]1C(C)=CC[C@H]2C(=O)C(OC)=CC(=O)[C@@]12c1cc(=O)c2c(O)cc(O)cc2o1")
">10 µM"
>>> assay_value("C=C1[C@@H](O)C[C@H]2C(C)(C)CCC[C@]2(C)[C@H]1C[C@@H]1C(C)=CC[C@H]2C(O)C(OC)=CC(=O)[C@@]12c1cc(=O)c2c(O)cc(O)cc2o1 (stereo not given in full)")
">10 µM"
>>> assay_value("C=C1[C@@H](O)C[C@H]2C(C)(C)C[C@H](O)C[C@]2(C)[C@@]1(O)C[C@@H]1C(C)=CC[C@H]2C(=O)C(OC)=CC(=O)[C@@]12c1cc(=O)c2c(O)cc(O)cc2o1")
">10 µM"

Bench note: what Activity did C=C1C(=O)C[C@H]2C(C)(C)CCC[C@]2(C)[C@H]1C[C@@H]1C(C)=CC[C@H]2C(=O)C(OC)=CC(=O)[C@@]12c1cc(=O)c2c(O)cc(OC)cc2o1 show?
3.1 µM

Activity for C=C1C(=O)C[C@H]2C(C)(C)C[C@H](O)C[C@]2(C)[C@@]1(O)C[C@@H]1C(C)=CC[C@H]2C(=O)C(OC)=CC(=O)[C@@]12c1cc(=O)c2c(O)cc(OC)cc2o1 ?
2.8 µM

// lookup Activity for C=C1[C@@H](O)C[C@H]2C(C)(C)CCC[C@]2(C)[C@H]1C[C@@H]1C(C)=CC[C@H]2C(O)C(=O)C=C[C@@]12c1cc(=O)c2c(O)cc(O)cc2o1 (stereo not given in full)
>10 µM

Given the entry NC(=O)N1CCC(CC(=O)N2CCC([C@H]3c4ncc(Br)cc4CCc4cc(Cl)cc(Br)c43)CC2)CC1 , report its measured Activity.
>10 µM

Need Activity, item C=C1[C@@H](O)C[C@@H]2[C@](C)(CCC[C@@]2(C)C(=O)O)[C@H]1C[C@@H]1C(C)=CC[C@H]2C(=O)C(OC)=CC(=O)[C@@]12c1cc(=O)c2c(O)cc(O)cc2o1
>10 µM

Recorded Activity for C=C1[C@@H](O)C[C@H]2C(C)(C)CCC[C@]2(C)[C@H]1C[C@@H]1C(C)=CC[C@H]2C(=O)C(OC)=CC(=O)[C@@]12c1cc(=O)c2c(O)cc(O)cc2o1 , please?
>10 µM
